# Assay target: DAP12 alone (Homo sapiens, UniProt O43914)
# Construct: expressed in transfected cells
# Sequence (O43914 22-113): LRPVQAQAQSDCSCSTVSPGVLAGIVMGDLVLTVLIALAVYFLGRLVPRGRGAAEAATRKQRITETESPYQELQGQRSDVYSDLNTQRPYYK
# Protocol details: Liposome stimulation pSyk AlphaLISA, HEK293 expressing DAP12 alone
# Assay type: cell-based
# Measurement context: liposomes 30% lipid/70% PC (KLA 10%/90%), fold change over HBSS
Quantity name: DAP12 alone (pSyk FOB)

INSERT INTO measurements (molecule, assay_target, quantity_name, data_value) VALUES
  ('CCCCCCCC(=O)OC[C@H](COP(=O)(O)OP(=O)(O)O)OC(=O)CCCCCCC [Diacylglycerol pyrophosphate (DGPP), Diacylglycerol pyrophosphate]', 'DAP12 alone (Homo sapiens, UniProt O43914)', 'DAP12 alone (pSyk FOB)', 1.16),
  ('CCCCCCCCCCCCC/C=C/[C@@H](O)[C@@H](N)CO[C@@H]1O[C@H](CO)[C@@H](O)[C@H](O)[C@H]1O [Glucosyl sphingosine (GlcSo), Glucosyl sphingosine]', 'DAP12 alone (Homo sapiens, UniProt O43914)', 'DAP12 alone (pSyk FOB)', 1.31),
  ('CC(C)CCC[C@@H](C)[C@H]1CC[C@H]2[C@@H]3CC=C4C[C@@H](O)CC[C@]4(C)[C@H]3CC[C@]12C [Free cholesterol (FC), Free cholesterol]', 'DAP12 alone (Homo sapiens, UniProt O43914)', 'DAP12 alone (pSyk FOB)', 1.14);
